// provenance: patent US4870071A

Reported ALP is given for each of the following compounds.
Tested on: acetaminophen-induced hepatic disorder
Test summary: Effect on acetaminophen-induced hepatic disorder
Format: in vivo, Male SD rats
Test parameters: 500 mg/kg oral, 1 hour before acetaminophen, 24 hours

Compound | ALP
O=C(O)C1CSC(C(O)C2OC(=O)C(O)C2O)N1 (stereo not shown) | 10.7 ± 1.04 BL (BesseyLowry) units
O=C(O)C1CSC(C(O)C(O)C(O)C(O)C(=O)O)N1 (stereo not shown) [CGNa, Sodium cysteineglucuronate] | 10.4 ± 1.22 BL (BesseyLowry) units
O=C(O)C1CSC(C(O)C(O)C(O)C(O)C(=O)O)N1 (stereo not shown) [CGCa, Calcium cysteineglucuronate] | 11.4 ± 1.52 BL (BesseyLowry) units
O=C(O)C1CSC(C(O)C(O)C(O)C(O)C(=O)O)N1 (stereo not shown) [CGMg, Magnesium cysteineglucuronate] | 12.8 ± 1.20 BL (BesseyLowry) units
